Just for reference, PubChem BioAssay (NCATS) is where these values come from.

- Tested on: ECU
- Run Description: qHTS profiling for inhibitors of Plasmodium falciparum proliferation (AID 504749);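 further: 0% = DMSO vehicle and full inhibition = artemisinin control; nearly all actives have a fitted effect of over 60% in size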
- Details: P. falciparum in erythrocytes, SYBR Green DNA, 72 h; series mostly up to 28.7 µM
Records with an inconclusive call do not appear. The source made the active and inactive calls. The call rests on the fitted dose curve; in most records, active means well fitted inhibition curve with a large enough effect; inconclusive means small, poorly fitted or top-dose-only effect; inactive means flat fitted curve, though single readings scatter.
Assign a class; possible classes are yes (1) for active, no (0) for inactive

Field: example entries. Status: answers known.
CC(CO)NC(=O)C1C=C2c3cccc4[nH]cc(c34)CC2N(C)C1 (stereo not given) :: no (0)
C[C@]12C=CC(=O)C=C1CC[C@@H]1C2CC[C@]2(C)OC(=O)CCC12 (stereo not given in full) :: no (0)
COc1ccc2c3c1O[C@H]1[C@@H](O)C=C[C@H]4C(C2)NCCC341 (stereo not given in full) :: no (0)
CCC(=O)OC1(c2ccccc2)CCN(C)CC1C (stereo not given) :: no (0)
CN(C)C1C(=O)C(C(N)=O)C(=O)C2(O)C(=O)C3C(=O)c4c(O)cccc4C(C)(O)C3C(O)C12 (stereo not given) :: no (0)

Switching to the query record.
Prompt: Tell me the recorded outcome of this test for Cc1ccc2c(c1)[C@@H]1CN(C)CC[C@H]1N2 .
Completion: no (0)

----------
- Tgt: Ubiquitin carboxyl-terminal hydrolase 1 (Homo sapiens)
- Run Description: Inhibitors of USP1/UAF1: Pilot qHTS (AID 504865);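 further: rhodamine fluorescence freed from ubiquitin-rhodamine substrate followed over time; top concentration of the series differs between compounds; nearly all actives have a fitted effect of over 35% in size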
- Details: purified USP1/UAF1, Ub-rhodamine cleavage fluorescence; series mostly up to 114 µM
Records with an inconclusive call do not appear. Activity calls are given as the source filed them. The call rests on the fitted dose curve; in most records, active means well fitted inhibition curve with a large enough effect; inconclusive means small, poorly fitted or top-dose-only effect; inactive means flat fitted curve, though single readings scatter.
Experimental Endpoint: Potency

CCCCN(CC)c1c([N+](=O)[O-])cc(C(F)(F)F)cc1[N+](=O)[O-] :: inactive
C[C@]12CC[C@H]3[C@@H](CC[C@@]45O[C@@H]4C(=O)C(C#N)C[C@]35C)[C@@H]1CC[C@@H]2O (some centres undefined) :: inactive
C[C@@]12C=CC(=O)C=C1CCC1C2CC[C@]2(C)C(=O)CCC12 (some centres undefined) :: inactive
C[C@@H](Cc1cccc(C(F)(F)F)c1)NCCCc1ccccc1 :: inactive

Hi team, please reply with Potency for each item in this list.
1. CN(CCc1ccc(Cl)c(Cl)c1)[C@H]1CCCC[C@H]1N1CCCC1
2. CN(C)[C@H]1C(=O)C(C(N)=O)=C(O)[C@]2(O)C(=O)C3=C(O)c4c(O)cccc4[C@@](C)(O)[C@H]3C[C@@H]12
3. CC(=O)[C@H]1CC[C@H]2C3CC[C@H]4C[C@H](O)CC[C@]4(C)C3CC[C@]12C (some centres undefined)

Completion:
1: inactive; 2: inactive; 3: inactive

----------
- Run Description: MultiTox-Fluor Cytotoxicity Assay - LYMP1-003 - Dead Cells (AID 961);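 further: cells exposed to compound for 16 h at 37 °C; nearly all actives have a fitted effect of over 70% in size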; further: potency means the concentration at half of the fitted maximal effect
- Details: LYMP1-003 lymphoblastoid cells, dead-cell protease fluorescence; series mostly up to 92.2 µM
Active and inactive are the calls of the source. Calls follow the shape of the dose curve; as a rule, active = well fitted cell-killing curve with a large enough effect; inconclusive = small, poorly fitted or top-dose-only effect, or effect the other way; inactive = flat fitted curve, though single readings scatter.
Experimental Endpoint: Potency

Observe how each entry below is paired with its result.
Nc1ccccc1C(=O)OCCc1ccccc1 :: inactive
C(=NC1CCCCC1)=NC1CCCCC1 :: inactive
Oc1c(Br)c(Br)c(Br)c(Br)c1Br :: inactive
N#CC(Cl)Cl :: inactive

Hi team, please reply with Potency for each item in this list.
1. O=C(CCl)c1ccccc1
2. O=C(O)C1C(C(=O)O)C2(Cl)C(Cl)=C(Cl)C1(Cl)C2(Cl)Cl (stereo not given)
3. CC/C(=C(\c1ccccc1)c1ccc(OCCN(C)C)cc1)c1ccc(O)cc1
4. CCCCCCCCn1sccc1=O
5. O=[N+]([O-])c1cc(C(F)(F)F)cc([N+](=O)[O-])c1Cl
6. C#CCO
7. CN(C)c1ccc(N=O)cc1

Completion:
1. 31.6 µM (active)
2. inactive
3. 50.1 µM (active)
4. 7.94 µM (active)
5. inactive
6. inactive
7. 3.98 µM (active)

Hi team, please reply with Potency for each item in this list.
1. O=Nc1ccc(Nc2ccccc2)cc1
2. OC(c1ccc(Cl)cc1)(c1ccc(Cl)cc1)C(Cl)(Cl)Cl
3. C=CC(=O)OCC(CO)(COC(=O)C=C)COC(=O)C=C
4. CC(C)CC(C)Nc1ccc(Nc2ccccc2)cc1 (stereo not given)

Completion:
1: 5.01 µM (active); 2: inactive; 3: 7.94 µM (active); 4: 50.1 µM (active)
